B1: NCF4 (parent)
chain: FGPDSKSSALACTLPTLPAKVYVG

# Variants of: B1
# Assay Method Text: protein stability index of a GFP-peptide fusion (GPS, HEK-293T) (PSI 1-6); higher = more stable;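 note: lentivirally expressed fusions sorted by FACS into six bins by GFP to DsRed ratio, PSI derived from sequencing read proportions per bin multiplied by bin number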
# Particulars: c terminus: a fixed tail appended
Class boundaries, taken from values of protein stability index, are as follows: bin 1 (below 2), bin 2 (2 to below 3), bin 3 (3 or more)

> print(dat)
    mutant.label  label.value
 1          L17E        bin 2
 2          G24C        bin 1
 3          G24K        bin 2
 4          L17R        bin 2
 5           A9D        bin 3
 6          L14K        bin 2
 7          L10T        bin 3
 8           P3Y        bin 1
 9           S7Y        bin 1
10           S7C        bin 1
11          Y22S        bin 3
12          K20C        bin 2
13           K6L        bin 1
